Measured values drawn from patent US20250135039A1 for this set.

System: U251 human glioblastoma cell line
test description: in vitro FM-HCR assay of MGMT activity (mPlum O^6MeG reporter plasmid)
Format: cell-based
applied conditions: 0.1% DMSO; U251 cells; flow cytometry 24 h after transfection; damaged/undamaged reporter; inversely related to MGMT activity
measured property: Reporter expression (%) mean, DMSO
Quick note: give the figure in %, leave out the unit.

{"molecule": "S159Y: MGMT polypeptide with mutation S159Y (protein) MDKDCEMKRTTLDSPLGKLELSGCEQGLHEIKLLGKGTSAADAVEVPAPAAVLGGPEPLMQCTAWLNAYFHQPEAIEEFPVPALHHPVFQQESFTRQVLWKLLKVVKFGEVISYQQLAALAGNPKAARAVGGAMRGNPVPILIPCHRVVCSSGAVGNYYGGLAVKEWLLAHEGHRLGKPGLGGSSGLAGAWLKGAGATSGSPPAGRN", "Reporter expression (%) mean, DMSO": 26.0}

# molecule G160A: MGMT polypeptide with mutation G160A (protein) MDKDCEMKRTTLDSPLGKLELSGCEQGLHEIKLLGKGTSAADAVEVPAPAAVLGGPEPLMQCTAWLNAYFHQPEAIEEFPVPALHHPVFQQESFTRQVLWKLLKVVKFGEVISYQQLAALAGNPKAARAVGGAMRGNPVPILIPCHRVVCSSGAVGNYSAGLAVKEWLLAHEGHRLGKPGLGGSSGLAGAWLKGAGATSGSPPAGRN ; its Reporter expression (%) mean, DMSO = 15.5

# molecule L33R: MGMT polypeptide with mutation L33R (protein) MDKDCEMKRTTLDSPLGKLELSGCEQGLHEIKRLGKGTSAADAVEVPAPAAVLGGPEPLMQCTAWLNAYFHQPEAIEEFPVPALHHPVFQQESFTRQVLWKLLKVVKFGEVISYQQLAALAGNPKAARAVGGAMRGNPVPILIPCHRVVCSSGAVGNYSGGLAVKEWLLAHEGHRLGKPGLGGSSGLAGAWLKGAGATSGSPPAGRN ; its Reporter expression (%) mean, DMSO = 15.0
